- ASSAY TEXT: NCI Yeast Anticancer Drug Screen. Data for the rad50 strain (AID 155);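 also: 0% = growth of vehicle-only cultures of the same strain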
- CONDITION NOTES: S. cerevisiae rad50 strain growth inhibition; at 50.0 µM; stronger effect = higher value
- Protocol: Growth inhibition of yeast strains with defined genetic alterations is measured as a screen for potential anti-cancer activity. Selected strains with alterations in DNA damage repair or cell cycle control were exposed to compounds and growth inhibition was measured relative to vehicle treated controls. The strain used in this assay is rad50
About 79,000 compounds went through this panel and 15% of them were active in at least one assay; those are over-represented in the sample as a whole.
Entry flag: condition met if growth inhibition reaches 10%; condition not met if it does not.

MOLECULE	LABEL
CC1C2CC(CC(=O)N2)C1(C)C (configuration not stated)	condition met
CN(C)c1ccc(/C=C/C=C/C(=O)c2ccccc2)cc1	condition not met
O=C1C(=Cc2cccc(O)c2)N=C(c2ccccc2)N1n1c(-c2ccccc2)nc2ccccc2c1=O	condition not met
O=C(O)CSC1=NNC2(C(=O)N1)c1ccccc1-c1ccccc12	condition not met
O=C(O)c1cccc(C(=O)O)c1C(=O)O.[NH-]C1CCCCC1[NH-].[Pt+2]	condition not met

Quick check: does `O=S(=O)(O)c1cc(N=Nc2cc(S(=O)(=O)O)c3cccnc3c2O)ccc1/C=C/c1ccc(N=Nc2cc(S(=O)(=O)O)c3cccnc3c2O)cc1S(=O)(=O)O.[Na+].[Zn+2]` have growth inhibition greater than or equal to 10%?
condition not met

Another molecule to look at: `COCCOC(=O)c1ccccc1O`
condition not met

Another molecule to look at: `O=c1oc2ccccc2c(O)c1Oc1ccccc1`
condition not met

====

- ASSAY TEXT: NCI Yeast Anticancer Drug Screen. Data for the mlh1 rad18 strain (AID 175)
- CONDITION NOTES: S. cerevisiae mlh1 rad18 strain growth inhibition; at 50.0 µM
- Method: Growth inhibition of yeast strains with defined genetic alterations is measured as a screen for potential anti-cancer activity. Selected strains with alterations in DNA damage repair or cell cycle control were exposed to compounds and growth inhibition was measured relative to vehicle treated controls. The strain used in this assay is mlh1 rad18
Compounds without any hit were thinned out: in the full panel of roughly 79,000, 15% have a hit. Active and inactive are the calls of the source. No stated cut-off is given here; in the data, active means growth inhibition above about 70%; inactive means the rest.
Form entry, call: pick from active, inactive

COMPOUND	LABEL
CC1=C(CCC(C)CO)OC2CC3C4CC=C5CC(O)CCC5(C)C4CCC3(C)C12 (configuration not stated)	inactive
Cc1ccc(Br)cc1C(=O)O	inactive
Cc1c(-c2ccccc2)nc(N(C)C)oc1=O	inactive
CN(C)C(=O)Nc1cccc(OC(=O)NC2CCCCCCC2)c1	inactive
COc1nc(NC2OCC(O)C(O)C2O)c(C(C)=O)c(=O)n1C (configuration not stated)	inactive

Look up the recorded call for `COc1c(N)c(C)nc(Cl)c1C#N` in this test.
inactive

Another compound to look at: COc1ccc(N2N=NCC2c2ccccc2[N+](=O)[O-])cc1 (configuration not stated)
inactive

====

Recorded growth inhibition values for a group of molecules are listed next.
- ASSAY TEXT: NCI Yeast Anticancer Drug Screen. Data for the sgs1 mgt1 strain (AID 161);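 also: 0% = growth of cultures given vehicle only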
- CONDITION NOTES: S. cerevisiae sgs1 mgt1 strain, at 50.0 µM, stronger effect = higher value
This is part of a sample that, as a whole, favours compounds with a hit. Of some 79,000 tested, about 15% had one in any assay. The source made the active and inactive calls. Rule as the data show it: active = growth inhibition above about 70%; inactive = the rest.

Solved entries:
MOLECULE	growth inhibition
CCOC(=O)c1cccc2ncccc12	-2.8% (inactive)
CC(C)OC(=O)CC#N	-7.7% (inactive)
COc1ccc2c(c1)C1CCCCC1SCC2=O (configuration not stated)	-1.9% (inactive)

Entry NC1=NN(c2ccccc2)C(=O)C1C(=O)CCC(=O)Nc1cccc(Cl)c1 (configuration not stated) has what growth inhibition?
-11.4% (inactive)

Origin of the recorded values: PubChem BioAssay (NCI)
